The reported measurements were obtained from PubChem BioAssay AID1063.

# protocol details: Leishmania major promastigote growth inhibition, primary screen (AID 1063);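 further: promastigotes grown with compound for 44 hours at 28 °C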
# condition description: Leishmania major promastigotes, resazurin fluorescence viability; at 10 µM; stronger effect = higher value
In all, about 200,000 compounds went through this assay and about 18,000 (9%) were called active. The entries come from a sample that favours actives as a whole.
reported metric: inhibition (%)
Number in %, nothing else.

COn1c(-c2ccc(Cl)cc2Cl)nc2ncccc21; -6.75
Cc1ccc(-c2csc(-c3c[nH]c4ccccc34)n2)cc1; -3.69
CC(C)OC(=O)CN1C(=O)c2ccccc2C1=O; 14.7
O=C(/C=C/c1ccc(Cl)cc1)Nc1ccc(S(=O)(=O)Nc2ncccn2)cc1; 63.3
C=CCN(c1ccc(C(N)=O)cc1)S(C)(=O)=O; -6.04

Exercise: For the molecule `O=C(NCC1CCCCC1)c1cc(S(=O)(=O)N2CCCCC2)ccc1N1CCOCC1` , what inhibition is on record?
Solution: 7.99

Exercise: For the molecule `CC(C)OCCCNC(=S)N1CCC(C(=O)c2ccc3c(c2)OCCO3)CC1` , what inhibition is on record?
Solution: -1.34

Exercise: For the molecule `CCNC(=S)NNC(=O)c1ccc2ncccc2c1` , what inhibition is on record?
Solution: -8.24

Exercise: For the molecule `CCCCN(C)C(=O)c1ccc2c(c1)N(CC)C(=O)c1ccccc1S2(=O)=O` , what inhibition is on record?
Solution: -6.56

Exercise: For the molecule `C=CCN(c1ccc(C(=O)Nc2cc(C)cc(C)c2)cc1)S(C)(=O)=O` , what inhibition is on record?
Solution: 76

Exercise: For the molecule `O=C(/C=C/c1ccccc1Cl)Nc1ccc(S(=O)(=O)Nc2ncccn2)cc1` , what inhibition is on record?
Solution: -5.22

Exercise: For the molecule `O=C(c1ccc2c(c1)N(Cc1ccc(F)cc1)C(=O)c1ccccc1S2(=O)=O)N1CCN(c2ccccn2)CC1` , what inhibition is on record?
Solution: 97

Exercise: For the molecule `COc1cccc(NC(=O)NCc2ccc(F)cc2)c1` , what inhibition is on record?
Solution: 2.02

Exercise: For the molecule `Cc1cccc2c1N(CC(=O)OC(C)C)C(=O)C2=O` , what inhibition is on record?
Solution: -12.8

Exercise: For the molecule `CCN1C(=O)/C(=C2\SC(N3CCCCC3)=NC2=O)c2ccccc21` , what inhibition is on record?
Solution: 74.1

Exercise: For the molecule `O=C(Cc1c(F)cccc1Cl)Nc1ncc([N+](=O)[O-])s1` , what inhibition is on record?
Solution: 15.8

Exercise: For the molecule Cc1ccc(S(=O)(=O)N2CCOCC2)cc1C(=O)OC1CCCCC1=O (stereo not drawn) , what inhibition is on record?
Solution: 1.9

Exercise: For the molecule `O=C(Nc1ccccc1C(=O)N1CCOCC1)c1ccc(Cl)cc1` , what inhibition is on record?
Solution: 1.24

----------
# protocol details: Leishmania major promastigote growth inhibition, primary screen (AID 1063);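 further: promastigotes grown with compound for 44 hours at 28 °C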
# condition description: Leishmania major promastigotes, resazurin fluorescence viability; at 10 µM; stronger effect = higher value
The campaign covered roughly 200,000 compounds. About 18,000 (9%) were called active. The entries come from a sample that favours actives as a whole.
Catalogue of molecules with associated inhibition
Number in %, nothing else.

O=C(O)CC(SCC(=O)Nc1ccc(Br)cc1)C(=O)O (stereo unspecified); -3.9
Cc1ccc(CNC(=O)CCNS(=O)(=O)c2ccc(Br)s2)cc1; -6.86
Cc1ccc(C(=O)OC(C)CN2CCOCC2)cc1 (stereo unspecified); -9.42

Exercise: For the molecule `CCOC(=O)C1(S(=O)(=O)c2ccccc2)CCN(Cc2ccccc2)CC1` , what inhibition is on record?
Solution: 1.91

Exercise: For the molecule `C/C(=N\NC(=O)c1cccc(N2CCCC2=O)c1)c1ccc(N)cc1` , what inhibition is on record?
Solution: -3.01

Exercise: For the molecule `CCOC(=O)C1(CCOC)CCN(Cc2ccc(C(=O)OC)cc2)CC1` , what inhibition is on record?
Solution: 81.1

Exercise: For the molecule `COC(=O)c1ccc(CN2CCC(CO)(Cc3ccc(OC)cc3)CC2)cc1` , what inhibition is on record?
Solution: 86.4

Exercise: For the molecule `CCOC(=O)CNC(=O)N1c2ccccc2Sc2ccccc21` , what inhibition is on record?
Solution: 3.23

Exercise: For the molecule `COc1cccc(CC2(CO)CCN(Cc3cnc(-c4cccc(C)c4)nc3)CC2)c1` , what inhibition is on record?
Solution: 4.89

Exercise: For the molecule `CCOC(=O)C1(S(=O)(=O)c2ccc(Cl)cc2)CCN(Cc2ccccc2)CC1` , what inhibition is on record?
Solution: 29.3

Exercise: For the molecule `Cc1ccc(S(=O)(=O)NCCC(c2ccccc2)c2ccccc2)cc1C(=O)O` , what inhibition is on record?
Solution: -13.6

----------
# protocol details: Leishmania major promastigote growth inhibition, primary screen (AID 1063);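 further: promastigotes grown with compound for 44 hours at 28 °C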
# condition description: Leishmania major promastigotes, resazurin fluorescence viability; at 10 µM; stronger effect = higher value
Among all 200,000 compounds or so, about 18,000 (9%) were called active. Many of the other results were omitted from the sample, so actives are more common in it than they were.
Catalogue of compounds with associated inhibition
Number in %, nothing else.

Here is how some compounds turned out for inhibition.
CN(C)/C=C/C(=O)c1cnc2sccn2c1=O; -6.23
CCN(C(=O)COC(=O)c1ccc(COc2ccc3c(C)cc(=O)oc3c2)cc1)C1CCS(=O)(=O)C1 (stereo not drawn); -10.4
CN1CCN(CCCCOc2ccccc2-c2ccccc2)CC1; 44.5
Cc1cccc(N(CC(O)CN(C)C)S(=O)(=O)c2ccccc2)c1 (stereo not drawn); 95.9
COc1ccc(NS(=O)(=O)c2cc(NC(=O)C3CCCCC3)ccc2N2CCOCC2)cc1; 16.6
O=C(Nc1nnc(C2CC2)s1)c1ccccn1; 84.9
CCOC(=O)C1(C)NC(c2ccco2)C2C(=O)N(c3ccccc3)C(=O)C21 (stereo not drawn); -8.75
Cc1ccc(N(CC(O)CN2CCCC2)S(=O)(=O)c2ccccc2)cc1 (stereo not drawn); 60.2

Exercise: For the compound `Cc1ccc(-c2cc(C(=O)N3CCc4ccccc4C3)no2)cc1` , what inhibition is on record?
Solution: -3.45

Exercise: For the compound `CCN(c1ccccc1)S(=O)(=O)c1ccc2[nH]c(=O)[nH]c2c1` , what inhibition is on record?
Solution: -5.33

Exercise: For the compound `COc1ccccc1N(CC(=O)N1CCCCC1)S(=O)(=O)c1ccccc1` , what inhibition is on record?
Solution: -2.25

Exercise: For the compound `COc1ccc(NS(=O)(=O)c2cc(NC(=O)/C=C/c3cc(OC)c(OC)c(OC)c3)ccc2N2CCCCC2)cc1` , what inhibition is on record?
Solution: 61.7

Exercise: For the compound O=C1C2C3C=CC(C3)C2C(=O)N1c1ccc(-c2nc3ccccc3c(=O)o2)cc1 (stereo not drawn) , what inhibition is on record?
Solution: -7

Exercise: For the compound COc1ccc(OC)c(C(c2nnnn2C(C)(C)C)N2CCc3ccccc3C2)c1 (stereo not drawn) , what inhibition is on record?
Solution: 88.9

Exercise: For the compound COC(=O)[C@H](Cc1ccccc1)NC(=O)N1CC(C)OC(C)C1 (stereo partly drawn) , what inhibition is on record?
Solution: 15.6

----------
# protocol details: Leishmania major promastigote growth inhibition, primary screen (AID 1063);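 further: promastigotes grown with compound for 44 hours at 28 °C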
# condition description: Leishmania major promastigotes, resazurin fluorescence viability; at 10 µM; stronger effect = higher value
About 18,000 (9%) of roughly 200,000 compounds were called active. This is one part of a sample in which actives are shown more often than they occur.
Catalogue of molecules with associated inhibition
Number in %, nothing else.

Here is how some molecules turned out for inhibition.
CCCCCc1ccc(-c2ccc(OCC)cc2)nc1; -7.26
Cc1ccc(C(NC(=O)N2CCCC2)C(Cl)(Cl)Cl)cc1F (stereo unspecified); -2.3
CCOC(=O)N1CCN(C(=O)C2CCN(Cc3ccc(OC)cc3OC)CC2)CC1; 53.4
Cc1ccc(NC(=S)N(CCCN2CCCC2)Cc2cccn2Cc2ccc(Cl)cc2)cc1; 99.7
CCOC(=O)N1CCN(C(=O)C2CCN(S(C)(=O)=O)CC2)CC1; -5.19

Now look at this one.
Exercise: For the molecule `Oc1ccc(Br)cc1C=Nc1ccc2[nH]ncc2c1` , what inhibition is on record?
Solution: -4.98

----------
# protocol details: Leishmania major promastigote growth inhibition, primary screen (AID 1063);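 further: promastigotes grown with compound for 44 hours at 28 °C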
# condition description: Leishmania major promastigotes, resazurin fluorescence viability; at 10 µM; stronger effect = higher value
About 18,000 (9%) of roughly 200,000 compounds were called active. Many of the other results were omitted from the sample, so actives are more common in it than they were.
Catalogue of compounds with associated inhibition
Number in %, nothing else.

Exercise: For the compound `COc1cc(C(=O)NCc2ccc(-n3cccc3)cc2)cc(OC)c1OC` , what inhibition is on record?
Solution: 23
